Test: Mouse PK Study
Assay type: in vivo
Details: plasma; Iv dosing (1 mg/kg), male CD-1 mouse
Method: Biological Example: Mouse PK Study The pharmacokinetics of compounds were evaluated in male CD-1 mouse via Intravenous (dose of 1 mg/kg) and Oral Administration (dose of 10 mg/kg). […] The following pharmacokinetic parameters were calculated, whenever possible from the plasma concentration-time data: CL, Vd, T1/2, AUClast, AUCinf for IV administration and Tmax, Cmax, AUClast, AUCinf, T1/2 for PO administration. […]
metric: AUC(0-t)

>  <molecule>
CC(C)c1ccccc1[C@@H]1CN(Cc2ccc(F)c(F)c2)CCN1C1CC2(CCN(c3ccc(C(=O)NS(=O)(=O)c4ccc(NC[C@H]5CC[C@](C)(O)CC5)c([N+](=O)[O-])c4)c(Oc4cnc5[nH]ccc5c4)c3)CC2)C1 (single isomer, unassigned) [Example 52a]

>  <AUC(0-t)>
6510 ng·h/mL

$$$$

Record AUC(0-t) for all entries; do not skip any.
1. COc1ccc(CN2CCN(C3CC4(CCN(c5ccc(C(=O)NS(=O)(=O)c6ccc(NC[C@H]7CC[C@](C)(O)CC7)c([N+](=O)[O-])c6)c(Oc6cnc7[nH]ccc7c6)c5)CC4)C3)[C@H](c3ccccc3C(C)C)C2)cc1 [Example 19a]
2. COc1cc(CN2CCN(C3CC4(C3)CN(c3ccc(C(=O)NS(=O)(=O)c5ccc(NC[C@H]6CC[C@](C)(O)CC6)c([N+](=O)[O-])c5)c(Oc5cnc6[nH]cc(F)c6c5)c3)C4)[C@H](c3ccccc3C(C)C)C2)ccc1C1CC1 [Example 232]
3. COc1cc(CN2CCN(C3CC4(C3)CN(c3ccc(C(=O)NS(=O)(=O)c5ccc(NC[C@H]6CC[C@](C)(O)CC6)c([N+](=O)[O-])c5)c(Oc5cnc6[nH]ccc6c5)c3)C4)[C@H](c3ccccc3C(C)C)C2)ccc1C1CC1 [Example 233]
4. COc1cc(CN2CCN(C3CC4(C3)CN(c3ccc(C(=O)NS(=O)(=O)c5ccc(NC[C@H]6CC[C@](C)(O)CC6)c([N+](=O)[O-])c5)c(Oc5cnc6[nH]cc(F)c6c5)c3)C4)[C@H](c3ccccc3C(C)C)C2)cc2cc(C)oc12 [Example 338]
5. COc1ccc(CN2CCN(C3CC4(CCN(c5ccc(C(=O)NS(=O)(=O)c6ccc(NCC7(F)CCOCC7)c([N+](=O)[O-])c6)c(Oc6cnc7[nH]ccc7c6)c5)CC4)C3)[C@H](c3ccccc3C(C)C)C2)cc1 (single isomer, unassigned) [Example 32]

Completion:
12300 ng·h/mL
14400 ng·h/mL
17200 ng·h/mL
42900 ng·h/mL
10500 ng·h/mL
